I'd be grateful if you could share measured residual activity for these entries.
target: DYRK1A (human) (UniProt Q13627); test: radiometric filter-binding kinase assay; conditions: compound 0.1 µM

Some compounds with recorded residual activity:
compound: O=C(NCCCNc1nc(Nc2cccc(CN3CCOCC3)c2)ncc1C1CC1)C1CCC1
residual activity: 99%
//
compound: Cc1ccc(-c2ccc3c(ccc4sc5c(c43)NC[C@@H](C)NC5=O)n2)cn1
residual activity: 80%
//
compound: O=C(O)c1ccc(-c2c[nH]c3ncc(-c4ccccc4)cc23)cc1C1CCCC1
residual activity: 79%
//
compound: Cc1cc(NC(=O)c2cccc(NC(=O)/C=C/CN(C)C)c2)ccc1Nc1nccc(-c2cccnc2)n1
residual activity: 98%

Return reported residual activity values for all items listed beneath this line.
1. Cn1c(=O)c2c(ncn2C)n(C)c1=O
2. CN(C)C/C=C/C(=O)Nc1cccc(C(=O)Nc2ccc(Nc3nccc(-c4cccnc4)n3)cc2)c1

92%
97%

====

molecular target: MAPK8 (human); experiment: radiometric filter-binding kinase assay; details: compound 1.0 µM
I'd be grateful if you could share measured residual activity for these entries.
Answers are plain numbers, in %.

Some compounds with recorded residual activity:
compound: Cn1c(=O)c2c(ncn2C)n(C)c1=O
residual activity, %: 78

compound: O=c1c(O)c(-c2ccc(O)c(O)c2)oc2cc(O)c(O)c(O)c12
residual activity, %: 93

compound: NC(=O)c1c(NC(=O)C2CC2)sc2c1CCCC2
residual activity, %: 97

compound: O=C(O)c1cc(N=Nc2ccc(S(=O)(=O)Nc3ccccn3)cc2)ccc1O
residual activity, %: 96

compound: CCn1c(-c2nonc2N)nc2cncc(CNC3CCNCC3)c21
residual activity, %: 105

Return reported residual activity values for all items listed beneath this line.
1. c1ccc2c(-c3cnn4cc(-c5ccc(N6CCNCC6)cc5)cnc34)ccnc2c1
2. Cc1ccc(Sc2cnc(Nc3cccc(Br)n3)s2)cc1C(=O)N1CCN(C(=O)CN)CC1
3. CNC(=O)C1[C@H]2O[C@@](C)([C@@H]1N)n1c3ccccc3c3c4c(c5c6ccccc6n2c5c31)C(=O)NC4 (stereo not given in full)
4. CN1C(=O)[C@@H](Cc2c[nH]c3ccccc23)NC1=S
5. CCc1cncnc1N1CCN(Cc2nc3cc(C(F)(F)F)ccc3[nH]2)CC1

[101, 99, 1, 85, 107]

====

target: SRPK1 (human) (UniProt Q96SB4); assay: radiometric filter-binding kinase assay; conditions: compound 10.0 µM
Sequence (Q96SB4 whole entry, looked up): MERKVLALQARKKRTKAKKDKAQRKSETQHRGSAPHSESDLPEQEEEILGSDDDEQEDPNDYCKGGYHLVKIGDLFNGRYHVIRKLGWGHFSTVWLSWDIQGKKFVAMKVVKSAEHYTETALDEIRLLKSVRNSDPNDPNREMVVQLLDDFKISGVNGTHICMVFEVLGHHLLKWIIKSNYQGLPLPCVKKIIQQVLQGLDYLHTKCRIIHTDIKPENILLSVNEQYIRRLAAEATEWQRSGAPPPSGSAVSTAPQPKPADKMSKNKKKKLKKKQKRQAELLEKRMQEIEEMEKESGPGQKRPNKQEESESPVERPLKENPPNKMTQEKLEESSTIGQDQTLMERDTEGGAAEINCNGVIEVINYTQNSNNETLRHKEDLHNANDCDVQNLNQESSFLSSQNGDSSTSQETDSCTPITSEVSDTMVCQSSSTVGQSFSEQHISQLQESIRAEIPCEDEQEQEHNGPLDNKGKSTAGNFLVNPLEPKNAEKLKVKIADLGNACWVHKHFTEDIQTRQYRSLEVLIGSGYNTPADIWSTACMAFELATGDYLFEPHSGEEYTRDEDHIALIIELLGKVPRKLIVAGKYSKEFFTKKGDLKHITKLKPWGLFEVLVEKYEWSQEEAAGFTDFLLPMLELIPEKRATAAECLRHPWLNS
Param threshold (80%) applies to residual activity; output Satisfied when value >= threshold, Not satisfied when value < threshold.

Reference set, count: 5
compound: Cc1cccc(Nc2nn(C)c3ncnc(N)c23)c1
labelClass: Satisfied
--
compound: O=c1c(O)c(-c2ccc(O)c(O)c2)oc2cc(O)c(O)c(O)c12
labelClass: Not satisfied
--
compound: O=C(NOCC(O)CO)c1ccc(F)c(F)c1Nc1ccc(I)cc1Cl (stereo not given)
labelClass: Satisfied
--
compound: NC(=O)c1cc(-c2ccnc(NC3CCCCC3)c2)nc(N2CCNCC2)c1
labelClass: Not satisfied
--
compound: C[C@H]1CCCC(=O)CCC/C=C/c2cc(O)cc(O)c2C(=O)O1
labelClass: Satisfied

In plain terms: is recorded residual activity at least 80% for `CCn1c(-c2nonc2N)nc2cncc(CNC3CCNCC3)c21` ? Satisfied

In plain terms: is recorded residual activity at least 80% for `O=C(Nc1cccnc1)c1cc(-c2ccnc(F)c2)ccc1OCc1ccccc1` ? Not satisfied

In plain terms: is recorded residual activity at least 80% for `CN1C(=O)[C@@H](Cc2c[nH]c3ccccc23)NC1=S` ? Satisfied

In plain terms: is recorded residual activity at least 80% for `O=C(NOC[C@H](O)CO)c1ccc(F)c(F)c1Nc1ccc(I)cc1Cl` ? Satisfied

In plain terms: is recorded residual activity at least 80% for `Cc1cc(SCc2sc(-c3ccc(C(F)(F)F)cc3)nc2C)ccc1OCC(=O)O` ? Satisfied

In plain terms: is recorded residual activity at least 80% for `O=C1NC(=S)N[C@@H]1Cc1c[nH]c2ccccc12` ? Satisfied

In plain terms: is recorded residual activity at least 80% for `CCCCCc1ccc(/C=C/[C@H](O)[C@@H](CO)NC)cc1` ? Satisfied

In plain terms: is recorded residual activity at least 80% for `COc1cc(C(=O)N2CCOCC2)c(F)cc1Nc1ncc(C(F)(F)F)c(NC2CC2)n1` ? Not satisfied

In plain terms: is recorded residual activity at least 80% for `Cc1ccc2c(c1)C(=O)[C@@]1(O)CCN(c3ccccc3)C1=N2` ? Satisfied

In plain terms: is recorded residual activity at least 80% for `Cc1nc(-c2ccc(OCC(C)C)c(C#N)c2)sc1C(=O)O` ? Satisfied

In plain terms: is recorded residual activity at least 80% for Nc1cccc2c1CN(C1CCC(=O)NC1=O)C2=O (stereo not given) ? Satisfied

In plain terms: is recorded residual activity at least 80% for `O=C(O)c1cc(N=Nc2ccc(S(=O)(=O)Nc3ccccn3)cc2)ccc1O` ? Satisfied

In plain terms: is recorded residual activity at least 80% for `C=CC(=O)N1CCC[C@@H](n2nc(-c3ccc(Oc4ccccc4)cc3)c3c(N)ncnc32)C1` ? Satisfied

In plain terms: is recorded residual activity at least 80% for `O=C(N[C@@H](COc1ccc2[nH]c(=O)[nH]c2c1)c1ccccc1)c1cccn(Cc2ccc(F)c(F)c2)c1=O` ? Satisfied

In plain terms: is recorded residual activity at least 80% for `Cc1ccc(=O)n(-c2ccccc2)c1` ? Satisfied

In plain terms: is recorded residual activity at least 80% for `O=C(O)c1ccc(-c2c[nH]c3ncc(-c4ccccc4)cc23)cc1C1CCCC1` ? Not satisfied

In plain terms: is recorded residual activity at least 80% for CC1=C(CO)C(=O)O[C@@H]([C@@H](C)[C@H]2CC[C@H]3[C@@H]4C[C@H]5O[C@]56[C@@H](O)C=CC(=O)[C@]6(C)C4CC[C@]23C)C1 (stereo not given in full) ? Not satisfied

In plain terms: is recorded residual activity at least 80% for COc1ccc2c(c1)c1c3c(c4c5ccccc5n(C)c4c1n2CC(O)CN(C)C)C(=O)NC3=O (stereo not given) ? Not satisfied

In plain terms: is recorded residual activity at least 80% for `CCOC(=O)c1ccc(N2NC(=O)/C(=C/c3ccc([N+](=O)[O-])o3)C2=O)cc1` ? Not satisfied

In plain terms: is recorded residual activity at least 80% for `Oc1ccc(/C=C/c2cc(O)cc(O)c2)cc1` ? Satisfied

In plain terms: is recorded residual activity at least 80% for `NC(=O)Nc1ccc2c(c1)/C(=C/c1cc(-c3cccnc3)c[nH]1)C(=O)N2` ? Not satisfied

In plain terms: is recorded residual activity at least 80% for `Cc1ccc(Sc2cnc(Nc3cccc(Br)n3)s2)cc1C(=O)N1CCN(C(=O)CN)CC1` ? Not satisfied
